Data credit: patent US20140073700A1

test system: IFNγ-Induced NO Production in RAW 264.7 cells; test: Nitric Oxide Suppression Assay (suppression of IFNγ-induced NO production); assay type: cell-based; settings: RAW264.7; RAW 264.7 mouse macrophage cells, 20 ng/mL interferon gamma, Griess detection; single curve fit to mean data of n=2-3
measurement.label: pIC50
// pIC50 here means minus log10 of the molar concentration (mol/L)

Note pIC50 for the compound shown: "COCC(COC)NC(=O)[C@@]1(C)CC[C@]2(C)CC[C@@]3(C)[C@]4(C)CC[C@H]5C(C)(C)C(=O)C(C#N)=C[C@]5(C)C4=CC(=O)[C@]3(O)[C@@H]2C1"
7.97

Note pIC50 for the compound shown: "CC1(C)C(=O)C(C#N)=C[C@]2(C)C3=CC(=O)[C@]4(O)[C@@H]5C[C@@](C)(C(=O)NCc6ccno6)CC[C@]5(C)CC[C@@]4(C)[C@]3(C)CC[C@@H]12"
7.91

Note pIC50 for the compound shown: "Cn1cc(CNC(=O)[C@@]2(C)CC[C@]3(C)CC[C@@]4(C)[C@]5(C)CC[C@H]6C(C)(C)C(=O)C(C#N)=C[C@]6(C)C5=CC(=O)[C@]4(O)[C@@H]3C2)cn1"
7.89

Note pIC50 for the compound shown: "CC1(C)C(=O)C(C#N)=C[C@]2(C)C3=CC(=O)[C@]4(O)[C@@H]5C[C@@](C)(C(=O)NCCN6CCOCC6)CC[C@]5(C)CC[C@@]4(C)[C@]3(C)CC[C@@H]12"
7.62

Note pIC50 for the compound shown: "CC1(C)C(=O)C(C#N)=C[C@]2(C)C3=CC(=O)[C@]4(O)[C@@H]5C[C@@](C)(C(=O)NCC#N)CC[C@]5(C)CC[C@@]4(C)[C@]3(C)CC[C@@H]12"
7.77

Next:
Note pIC50 for the compound shown: "COc1ccc(NC(=O)[C@@]2(C)CC[C@]3(C)CC[C@@]4(C)[C@]5(C)CC[C@H]6C(C)(C)C(=O)C(C#N)=C[C@]6(C)C5=CC(=O)[C@]4(O)[C@@H]3C2)cc1"
7.87

Note pIC50 for the compound shown: "CC1(C)C(=O)C(C#N)=C[C@]2(C)C3=CC(=O)[C@]4(O)[C@@H]5C[C@@](C)(C(=O)NCCO)CC[C@]5(C)CC[C@@]4(C)[C@]3(C)CC[C@@H]12"
7.26

Note pIC50 for the compound shown: "CC1(C)C(=O)C(C#N)=C[C@]2(C)C3=CC(=O)[C@@H]4[C@@H]5C[C@@](C)(C(=O)NC6CCCCC6)CC[C@]5(C)CC[C@@]4(C)[C@]3(C)CC[C@@H]12"
6.85

Note pIC50 for the compound shown: "CC1(C)C(=O)C(C#N)=C[C@]2(C)C3=CC(=O)[C@]4(O)[C@@H]5C[C@@](C)(C(=O)NCc6cnco6)CC[C@]5(C)CC[C@@]4(C)[C@]3(C)CC[C@@H]12"
7.84

Note pIC50 for the compound shown: CC(O)CNC(=O)[C@@]1(C)CC[C@]2(C)CC[C@@]3(C)[C@]4(C)CC[C@H]5C(C)(C)C(=O)C(C#N)=C[C@]5(C)C4=CC(=O)[C@]3(O)[C@@H]2C1 (stereo partly shown)
7.17

----------
Overview of recorded IC50 for various compounds
tested on: IFNγ-Induced NO Production in RAW 264.7 cells; assay: Nitric Oxide Suppression Assay (suppression of IFNγ-induced NO production); type: cell-based; details: RAW264.7; RAW 264.7 mouse macrophage cells, 20 ng/mL interferon gamma, Griess detection; single curve fit to mean data of n=2-3
Numeric only. Scale: nM

Worked cases, answers included:
Provide IC50, recorded with IFNγ-Induced NO Production in RAW 264.7 cells, of "CC(C)CCNC(=O)[C@@]1(C)CC[C@]2(C)CC[C@@]3(C)[C@]4(C)CC[C@H]5C(C)(C)C(=O)C(C#N)=C[C@]5(C)C4=CC(=O)[C@]3(O)[C@@H]2C1"
24

Provide IC50, recorded with IFNγ-Induced NO Production in RAW 264.7 cells, of "Cn1ccc(CNC(=O)[C@@]2(C)CC[C@]3(C)CC[C@@]4(C)[C@]5(C)CC[C@H]6C(C)(C)C(=O)C(C#N)=C[C@]6(C)C5=CC(=O)[C@]4(O)[C@@H]3C2)n1"
14.1

Provide IC50, recorded with IFNγ-Induced NO Production in RAW 264.7 cells, of "COCCNC(=O)[C@@]1(C)CC[C@]2(C)CC[C@]3(C)[C@H](C(=O)C=C4[C@@]5(C)C=C(C#N)C(=O)C(C)(C)[C@@H]5CC[C@]43C)[C@@H]2C1"
3

Provide IC50, recorded with IFNγ-Induced NO Production in RAW 264.7 cells, of "CC1(C)C(=O)C(C#N)=C[C@]2(C)C3=CC(=O)[C@]4(O)[C@@H]5C[C@@](C)(C(=O)NC6CCCCC6)CC[C@]5(C)CC[C@@]4(C)[C@]3(C)CC[C@@H]12"
9.7

Provide IC50, recorded with IFNγ-Induced NO Production in RAW 264.7 cells, of "CC1(C)C(=O)C(C#N)=C[C@]2(C)C3=CC(=O)[C@]4(O)[C@@H]5C[C@@](C)(C(=O)O)CC[C@]5(C)CC[C@@]4(C)[C@]3(C)CC[C@@H]12"
301

Alright, here's another compound for you.
Provide IC50, recorded with IFNγ-Induced NO Production in RAW 264.7 cells, of "COCC(COC)NC(=O)[C@@]1(C)CC[C@]2(C)CC[C@]3(C)[C@H](C(=O)C=C4[C@@]5(C)C=C(C#N)C(=O)C(C)(C)[C@@H]5CC[C@]43C)[C@@H]2C1"
15.8
